The reported measurements were obtained from PubChem BioAssay (NCI).

# measurement-protocol: NCI Yeast Anticancer Drug Screen. Data for the mec2-1 strain (AID 157)
# measurement-setup: S. cerevisiae mec2-1 strain; at 50.0 µM unless noted
This is part of a sample that, as a whole, favours compounds with a hit. Of some 79,000 tested, about 15% had one in any assay. The source made the active and inactive calls. No stated cut-off is given here; in the data, active means growth inhibition above about 70%; inactive means the rest.
In this exercise, the only acceptable responses are class 1 = active, class 0 = inactive

Exercise: How was CN(/C(=C/C(=O)c1ccccc1)C(=O)c1ccccc1)/C(=C/C(=O)c1ccccc1)C(=O)c1ccccc1 classified in this test?
Key: class 0

Exercise: Outcome logged for CN1C(=O)OC2OC(C)(c3ccc(S(=O)(=O)c4ccccc4)cc3)C(=O)CC21 (stereo not drawn) in this assay:
Key: class 0

Exercise: GET /call?item= c1ccc(-n2ncnn2)cc1 returns the recorded outcome of this test.
Key: class 0

Exercise: Identify the outcome logged in this assay for the compound shown: O=C1c2cc(F)ccc2-c2c(F)ccc(F)c21
Key: class 0

Exercise: # lookup: test call for O=C(Nc1ccc(-c2cn3ccccc3n2)cc1)c1ccccc1O
Key: class 0

Exercise: Check the results log: what was the call for COc1cc(O)c(C(C)=O)c(O)c1 ?
Key: class 0

Exercise: # lookup: test call for CC(CC(O)C(=O)O)CC(C)(C)C (stereo not drawn)
Key: class 0

Exercise: Tell me the recorded outcome of this test for Cc1cc([N+](=O)[O-])cc(Br)c1N .
Key: class 0

Exercise: Hi, do you know how O=S(=O)(N/N=C1\CC2CCC1C2)c1ccccc1 (stereo not drawn) came out in this test?
Key: class 0

Exercise: Kindly provide the recorded test outcome for the following compound: CC(C)/C(Cl)=N/OC(=O)Nc1ccc(F)c(Cl)c1
Key: class 0

Exercise: Hi team, can someone confirm the assay call for CN1C(C)(C)CC(=O)C(Br)C1(C)C (stereo not drawn) ?
Key: class 0

Exercise: Look up the recorded call for CCCCN=C(N)C(N)=NCCCC in this test.
Key: class 0

Exercise: // param item: O=S1(=O)CS/C(=N\C(=S)N(c2ccccc2)c2ccccc2)N1c1ccccc1 ; yields the recorded call
Key: class 0

Exercise: Dear all, I need the recorded test outcome for CC(C#N)C(=O)O (stereo not drawn) , thank you.
Key: class 0

Exercise: I'd appreciate the recorded outcome for O=C1c2ccccc2C(=O)C1c1ccc2ccccc2n1 from this test.
Key: class 0

Exercise: Hi, do you know how O=C(O)c1ccccc1S(=O)Cc1ccc(Br)cc1 (stereo not drawn) came out in this test?
Key: class 0

Exercise: How was CN(C)CCCNC(=O)N/N=C/c1ccccc1 classified in this test?
Key: class 0

Exercise: Short answer needed: outcome of this test for C=C1CC(C)(COc2ccc3ccc(=O)oc3c2)OC1=O (stereo not drawn) ?
Key: class 0

Exercise: Look up the recorded call for CCOC(=O)C(Cc1c[nH]c2c(N(CCO)CCO)cccc12)(NC(C)=O)C(=O)OCC in this test.
Key: class 0

Exercise: Status in this test for CN(C(=O)Nc1ccccc1)c1ccc(O)cc1 ?
Key: class 0

Exercise: Assay outcome for COc1cccc2c1C(=O)c1c(O)c3c(c(O)c1C2=O)CC1(O)CC3OC1(C)OC (stereo not drawn) : what was it?
Key: class 0

Exercise: Assay result, entry N#Cc1c(O)c(N=Nc2ccc(Cl)cc2)c(=O)n2c1[nH]c1ccccc12 — outcome?
Key: class 0

Exercise: Field: outcome | Entry: O=C(O)Cc1ccc(C(=O)O)cc1
Key: class 0

Exercise: Check the results log: what was the call for CCOC(=O)C(=O)C(NC(=O)Cc1ccccc1)C(=O)OCC (stereo not drawn) ?
Key: class 0

Exercise: What did this assay record as the result for CC(O)CNc1nc(N)[nH]c(=O)c1[N+](=O)[O-] (stereo not drawn) ?
Key: class 0

Exercise: Which outcome did this test record for the compound C=CCOC(=O)NC(CC(C)C)C(=O)NCC(N)=O (stereo not drawn) ?
Key: class 0

Exercise: I would be grateful if you could indicate the recorded call for CCCC(=O)CC(=O)C(F)(F)F.CCCC(=O)CC(=O)C(F)(F)F.CCCC(=O)CC(=O)C(F)(F)F.[Er] .
Key: class 0

Exercise: Call for entry CCN(CC)CC(=O)Nc1cc(Cl)ccc1OC :
Key: class 0

Exercise: Please indicate how the test categorized O=C1CCCc2[nH]ccc21 .
Key: class 0

Exercise: # outcome recorded in this test, key = CN(C)CCCNC(=O)CCNC(=O)c1cc(NC(=O)c2cc(NC(=O)c3cc(NC(=O)CCCNC(=O)c4cc(NC(=O)c5cc(NC(=O)c6nccn6C)cn5C)cn4C)cn3C)cn2C)cn1C
Key: class 0

Exercise: Answer briefly: the call reported for COc1c(Cl)cc(C(c2cc(Cl)c(OC)c(Cl)c2)C(Cl)(Cl)Cl)cc1Cl in this assay.
Key: class 0

Exercise: Lab log entry: C=C1CC(c2ccccc2)(c2cccs2)OC1=O (stereo not drawn) — outcome as called in the assay?
Key: class 1

Exercise: Test call for this compound, please: COCN1C(=N)C(C(=O)OC(C)(C)C)=C2C=C(O)C=CC21C (stereo not drawn)
Key: class 0

Exercise: Test call for this compound, please: CSc1nc2c([nH]1)c(=O)n(C)c(=S)n2C
Key: class 0

Exercise: Hello, I am checking results. What call was entered for CC1(C)CC(=O)C=C(NCc2ccccc2)C1 ?
Key: class 0

Exercise: Record request — test call for O=C1OC(c2ccccc2)=C2CCC3CCCCN1C23 (stereo not drawn)
Key: class 0

Exercise: Returns: the outcome recorded for O=C(C/C(=N/O)c1ccccc1)c1ccccc1 in this assay.
Key: class 0

Exercise: # lookup: test call for O=C(COc1ccc(Cl)cc1)N1CCN(C(=O)COc2ccc(Cl)cc2)c2ccccc21
Key: class 0

Exercise: Hey, what did the test say about O=C1C=CC(=Nc2ccc3c(c2)-c2ccccc2C3)O1 ?
Key: class 0

Exercise: Dear colleague, could you share the recorded outcome for CC(C)OC(=O)CCC(N)C(=O)O (stereo not drawn) when you have a moment?
Key: class 0

Exercise: Hey, what did the test say about C=C1c2nc3ccccc3n2C=C(c2ccc(C)cc2)N1c1ccc(C)cc1 ?
Key: class 0

Exercise: Called result for CCO/C(C)=N\OC(=O)C(F)(F)F
Key: class 0

Exercise: Which outcome was entered for the compound O=C(NCCCl)NC1CCCCCC1 in this test?
Key: class 0

Exercise: State the result this test recorded for Cc1cccc(/C=N/NC(=S)NC(C)(C)C)n1 .
Key: class 0

Exercise: Write down the call the test reported for this compound. Item: Cc1cccc(C)c1I
Key: class 0

Exercise: In this assay, the call recorded for COC1/C=C/OC2(C)Oc3c(C)c(O)c4c(c3C2=O)C(N)=C(NC2CC2)C(=NC(=O)/C(C)=C\C=C\C(C)C(O)C(C)C(O)C(C)C(OC(C)=O)C1C)C4=O (stereo not drawn) was what?
Key: class 0

Exercise: So what was the verdict on NC(=S)Cc1ccncc1 in this test?
Key: class 0

Exercise: Assay result, entry O=C(NCc1ccco1)Nc1ccccc1C(F)(F)F — outcome?
Key: class 0
